target: Cannabinoid receptor 1 (Homo sapiens, UniProt P21554); assay: Displacement of [3H]CP-55940 from human recombinant CB1 receptor expressed in CHO cells; type: cell-based
Sequence (P21554 whole entry): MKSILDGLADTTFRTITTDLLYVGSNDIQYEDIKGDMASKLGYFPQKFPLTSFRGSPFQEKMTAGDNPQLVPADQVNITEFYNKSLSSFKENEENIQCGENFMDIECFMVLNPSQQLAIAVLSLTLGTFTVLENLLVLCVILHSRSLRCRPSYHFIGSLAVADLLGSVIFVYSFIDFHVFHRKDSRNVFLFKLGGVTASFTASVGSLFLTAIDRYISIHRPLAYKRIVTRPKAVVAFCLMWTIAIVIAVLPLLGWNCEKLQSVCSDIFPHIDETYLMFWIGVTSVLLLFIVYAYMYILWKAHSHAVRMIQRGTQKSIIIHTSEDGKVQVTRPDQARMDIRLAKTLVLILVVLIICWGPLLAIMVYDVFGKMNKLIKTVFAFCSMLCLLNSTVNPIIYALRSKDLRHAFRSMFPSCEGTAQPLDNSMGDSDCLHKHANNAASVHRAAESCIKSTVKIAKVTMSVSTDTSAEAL
quantity-kind: IC50
Mention the unit after the number when you answer.

These recorded examples may help you get a feel for the data.
- CC(C)OCCn1/c(=N/C(=O)c2cccc(C(F)(F)F)c2F)cc(C(C)(C)C)n1C: 0.76 µM
- Cn1c(C(C)(C)C)c/c(=N\C(=O)c2cccc(C(F)(F)F)c2F)n1CC1CC1: 4 µM

Q: Param readout= IC50; system= Cannabinoid receptor 1 (Homo sapiens, UniProt P21554); entry= `Cc1c(C(=O)/N=c2\cc(C(C)(C)C)n(C)n2CC2CC2)cccc1C(F)(F)F` ; returns value.
A: 1.3 µM

====

target: Cannabinoid receptor 1 (Homo sapiens, UniProt P21554); assay: Agonist activity at CB1 receptor
quantity-kind: EC50

Q: Need EC50, item O=C(NCC1CCOCC1)c1cnc(Nc2ccc(Cl)cc2Cl)nc1C(F)(F)F [GW842166X]
A: > 30 µM

====

test: Plasma concentration in Sprague-Dawley rat at 10 mg/kg, po after 1.67 hrs; assay type: ADME, organism-based; set-up: dose 10 mg/kg, route oral
quantity-kind: Cmax (ng/mL)
One number for each entry, in ng/mL.

Q: Need Cmax, item `Cn1c(C(C)(C)C)c/c(=N\C(=O)c2cccc(C(F)(F)F)c2F)n1CC1CC1`
A: 545

====

target: Cannabinoid receptor 1 (Homo sapiens); experiment: Binding affinity to CB1 receptor
quantity-kind: pIC50
Give bare numbers, as −log10 of the molar value.

Q: Param readout= pIC50; system= Cannabinoid receptor 1 (Homo sapiens); entry= CN1CCCCC1Cn1cc(C(=O)c2cc([N+](=O)[O-])ccc2I)c2ccccc21 (stereo unspecified) ; returns value.
A: 6.55

====

experiment: Solubility in water at 25 degC; type: physicochemical
quantity-kind: solubility (µg/mL)
Answers are plain numbers, in µg/mL.

Q: Need solubility, item `Cn1c(C(C)(C)C)c/c(=N\C(=O)c2cccc(C(F)(F)F)c2F)n1CC1CC1`
A: 59

====

Exercise: state measured EC50 for each of the molecules provided.
target: Cannabinoid receptor 2 (Homo sapiens, UniProt P34972); test: Agonist activity at human recombinant CB2 receptor expressed in CHO cells by [35S]GTP-gamma-S binding assay; format: functional, cell-based
Sequence (P34972 whole entry): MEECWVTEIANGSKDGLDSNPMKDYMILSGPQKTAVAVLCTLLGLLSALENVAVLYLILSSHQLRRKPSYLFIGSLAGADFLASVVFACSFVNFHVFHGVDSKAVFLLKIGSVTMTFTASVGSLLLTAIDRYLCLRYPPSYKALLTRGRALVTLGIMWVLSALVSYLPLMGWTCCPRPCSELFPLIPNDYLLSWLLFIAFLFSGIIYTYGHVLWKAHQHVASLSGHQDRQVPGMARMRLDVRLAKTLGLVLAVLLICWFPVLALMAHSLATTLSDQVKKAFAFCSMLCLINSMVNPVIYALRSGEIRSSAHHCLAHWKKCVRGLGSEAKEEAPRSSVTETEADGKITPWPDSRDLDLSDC
One number for each entry, in nM.

* Cn1c(C(C)(C)C)c/c(=N\C(=O)c2cc(C(F)(F)F)ccc2F)n1CC1CC1 | 8.8
* Cn1c(C(C)(C)C)c/c(=N\C(=O)c2cccc(C(F)(F)F)c2F)n1CC1CCCC1 | 0.79
* Cc1c(C(=O)/N=c2\cc(C(C)(C)C)n(C)n2CC2CC2)cccc1C(F)(F)F | 4.4
* Cn1c(C(C)(C)C)c/c(=N\C(=O)c2cccc(C(F)(F)F)c2F)n1CC1CCC1 | 0.32
* Cn1c(C(C)(C)C)c/c(=N\C(=O)c2cccc(C(F)(F)F)c2Cl)n1CC1CC1 | 1.5
* CCOCCn1/c(=N/C(=O)c2cccc(C(F)(F)F)c2F)cc(C(C)(C)C)n1C | 1.1

State recorded EC50 for all listed molecules.
1. Cn1c(C(C)(C)C)c/c(=N\C(=O)c2cccc(C(F)(F)F)c2F)n1CC1CC1
2. CC(C)OCCn1/c(=N/C(=O)c2cccc(C(F)(F)F)c2F)cc(C(C)(C)C)n1C

A:
[1.8, 0.85]

====

target: UniProt P34972; assay: Binding affinity to CB2 receptor
quantity-kind: IC50 (nM)
Answers are plain numbers, in nM.

- CC1(C)C(C(=O)c2cn(CCN3CCOCC3)c3ccccc23)C1(C)C: 0.77

Q: Param readout= IC50; system= UniProt P34972; entry= CN1CCCCC1Cn1cc(C(=O)c2cc([N+](=O)[O-])ccc2I)c2ccccc21 (configuration not stated) ; returns value.
A: 3.4

====

molecular target: Cannabinoid receptor 2 (Homo sapiens); test: Agonist activity at CB2 receptor; assay type: functional
quantity-kind: pEC50
One number for each entry, as −log10 of the molar value.

Q: Param readout= pEC50; system= Cannabinoid receptor 2 (Homo sapiens); entry= O=C(NCC1CCOCC1)c1cnc(Nc2ccc(Cl)cc2Cl)nc1C(F)(F)F [GW842166X] ; returns value.
A: 7.30

====

biological target: Cannabinoid receptor 1 (Homo sapiens); experiment: Displacement of [3H]CP-55940 from human recombinant CB1 receptor expressed in CHO cells; type: cell-based
Exercise: state measured IC50 for each of the compounds provided.
Numbers only, in nM.

• Cn1c(C(C)(C)C)c/c(=N\C(=O)c2cc(C(F)(F)F)ccc2F)n1CC1CC1 = 3700
• Cn1c(C(C)(C)C)c/c(=N\C(=O)c2cccc(C(F)(F)F)c2F)n1CC1CCCC1 = 810
• CCOCCn1/c(=N/C(=O)c2cccc(C(F)(F)F)c2F)cc(C(C)(C)C)n1C = 870
• Cn1c(C(C)(C)C)c/c(=N\C(=O)c2cccc(C(F)(F)F)c2Cl)n1CC1CC1 = 2200

Now for the compound whose IC50 we want.
Q: Need IC50, item `Cn1c(C(C)(C)C)c/c(=N\C(=O)c2cccc(C(F)(F)F)c2F)n1CC1CCC1`
A: 940

====

target: Cannabinoid receptor 2 (Homo sapiens); experiment: Displacement of [3H]CP-55940 from human recombinant CB2 receptor expressed in CHO cells; format: cell-based
pIC50: −log10 of the molar value.
Note to self: values exactly at 8 are true (1). So pIC50 at or above 8 is true (1), below is false (0).

• CC(C)(C)c1nn(CC2CC2)/c(=N/C(=O)c2cccc(C(F)(F)F)c2)s1 = false (0)
• Cn1c(C(C)(C)C)c/c(=N\C(=O)c2cccc(C(F)(F)F)c2F)n1CC1CC1 = true (1)
• Cn1c(C(C)(C)C)c/c(=N\C(=O)c2cccc(C(F)(F)F)c2)n1CC1CC1 = false (0)
• Cc1ccc(C(F)(F)F)cc1C(=O)/N=c1\cc(C(C)(C)C)n(C)n1CC1CC1 = false (0)
• Cn1c(C(C)(C)C)c/c(=N\C(=O)c2cc(C(F)(F)F)ccc2F)n1CC1CC1 = false (0)
• Cn1c(C(C)(C)C)c/c(=N\C(=O)c2cccc(C(F)(F)F)c2Cl)n1CC1CC1 = true (1)
• CC(C)OCCn1/c(=N/C(=O)c2cccc(C(F)(F)F)c2F)cc(C(C)(C)C)n1C = true (1)
• Cc1c(C(C)C)o/c(=N\C(=O)c2cccc(C(F)(F)F)c2)n1CC1CC1 = false (0)
• CCOCCn1/c(=N/C(=O)c2cccc(C(F)(F)F)c2F)cc(C(C)(C)C)n1C = true (1)
• CC(C)(C)c1c/c(=N\C(=O)c2cccc(C(F)(F)F)c2)n(CC2CC2)o1 = false (0)

Continue with the compound presented below.
Q: Dear colleague, could you confirm whether `Cn1c(C(C)(C)C)c/c(=N\C(=O)c2cccc(C(F)(F)F)c2F)n1CC1CCC1` has pIC50 at or above 8?
A: true (1)

====

Biological target: Cannabinoid receptor 2 (Rattus norvegicus, UniProt Q9QZN9)
Sequence (Q9QZN9 whole entry): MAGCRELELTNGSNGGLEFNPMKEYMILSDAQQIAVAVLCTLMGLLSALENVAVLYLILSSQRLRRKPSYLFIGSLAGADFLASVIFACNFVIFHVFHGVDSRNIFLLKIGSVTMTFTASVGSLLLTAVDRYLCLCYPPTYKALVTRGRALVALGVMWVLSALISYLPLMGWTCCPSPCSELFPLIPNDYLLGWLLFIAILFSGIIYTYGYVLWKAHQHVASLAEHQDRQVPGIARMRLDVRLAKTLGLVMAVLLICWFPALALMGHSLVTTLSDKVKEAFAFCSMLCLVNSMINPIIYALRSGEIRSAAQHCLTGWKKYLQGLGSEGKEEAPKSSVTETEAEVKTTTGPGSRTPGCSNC
Test: Displacement of [3H]CP-55940 from […] receptor in Sprague-Dawley rat spleen membrane
quantity-kind: IC50

Q: Param readout= IC50; system= Cannabinoid receptor 2 (Rattus norvegicus, UniProt Q9QZN9); entry= `Cn1c(C(C)(C)C)c/c(=N\C(=O)c2cccc(C(F)(F)F)c2F)n1CC1CC1` ; returns value.
A: 1.4 nM

====

target: Cannabinoid receptor 2 (Homo sapiens, UniProt P34972); experiment: Agonist activity at human recombinant CB2 receptor expressed in CHO cells by [35S]GTP-gamma-S binding assay relative to CP-55940; format: functional, cell-based
Field: label. Allowed values: Fulfilled (Emax < 80%) or Not fulfilled (Emax >= 80%).

Example entries and their recorded answers appear below.
- Cn1c(C(C)(C)C)c/c(=N\C(=O)c2cccc(C(F)(F)F)c2F)n1CC1CCC1: Not fulfilled
- Cn1c(C(C)(C)C)c/c(=N\C(=O)c2cccc(C(F)(F)F)c2F)n1CC1CC1: Not fulfilled
- CC(C)OCCn1/c(=N/C(=O)c2cccc(C(F)(F)F)c2F)cc(C(C)(C)C)n1C: Fulfilled
- Cc1c(C(=O)/N=c2\cc(C(C)(C)C)n(C)n2CC2CC2)cccc1C(F)(F)F: Fulfilled
- Cn1c(C(C)(C)C)c/c(=N\C(=O)c2cc(C(F)(F)F)ccc2F)n1CC1CC1: Not fulfilled

Continue with the compound presented below.
Q: Please determine if `Cn1c(C(C)(C)C)c/c(=N\C(=O)c2cccc(C(F)(F)F)c2F)n1CC1CCCC1` is below 80% in terms of Emax.
A: Fulfilled
